- Tested on: Bacillus subtilis
- test.details: Effect on quorum sensing-mediated genetic competence in Bacillus subtilis expressing srfA-lacZ fusion assessed as concentration required to show same activity at EC25 of ComXRO-E-2 pheromone after 5 hrs by beta-galactosidase assay
*1 amine or outer side, *2 acyl side, *3 side chain or, on linkers, in order; H or OH if unused. Where a SMILES comes first, the peptide text is derived from it. [ ]: non-standard residue; d: D form. X2 = CC(C)=CCC/C(C)=C/CC/C(C)=C/C[C@]12C[C@@H](C(=O)[*:2])N([*:1])[C@H]1Nc1ccccc12
metric: EC25 (nM)
API: value field is a number in nM; no unit string.

Check out these entries, answers already filled in.
compound	metric	unit.abbreviation	recorded.value
CC[C@H](C)[C@H](NC(=O)CN)C(=O)N[C@@H](Cc1ccccc1)C(=O)N1[C@H]2Nc3ccccc3[C@@]2(C/C=C(\C)CC/C=C(\C)CCC=C(C)C)C[C@H]1C(=O)N[C@@H](CCC(=O)O)C(=O)N[C@@H](CCC(N)=O)C(=O)O (H-GIF[X2]EQ-OH)	EC25	nM	20
CC(C)=CCC/C(C)=C/C[C@]12C[C@@H](C(=O)N[C@@H](CCC(=O)O)C(=O)O)N(C(=O)C(N)Cc3ccccc3)[C@H]1Nc1ccccc12 (single isomer, unassigned)	EC25	nM	8
CC(C)=CCC/C(C)=C/C[C@]12C[C@@H](C(=O)N[C@@H](C)C(=O)O)N(C(=O)[C@@H](N)Cc3ccc(O)cc3)[C@H]1Nc1ccccc12	EC25	nM	100

Here is another compound to look at.
Ask: Form field: reported EC25 of CC(C)=CCC/C(C)=C/C[C@]12C[C@@H](C(=O)NCC(=O)O)N(C(=O)C(N)Cc3ccccc3)[C@H]1Nc1ccccc12 (single isomer, unassigned)
Result: 200

* * *

Property: EC50; scope: individual compounds
- test.details: Effect on quorum sensing-mediated genetic competence in Bacillus subtilis expressing srfA-lacZ fusion assessed as concentration required to show same activity at EC50 of ComXRO-E-2 pheromone after 5 hrs by beta-galactosidase assay
*1 amine or outer side, *2 acyl side, *3 side chain or, on linkers, in order; H or OH if unused. Where a SMILES comes first, the peptide text is derived from it. [ ]: non-standard residue; d: D form. X1 = C/C(=C\C[C@]12C[C@@H](C(=O)[*:2])N([*:1])[C@H]1Nc1ccccc12)CCCC(C)C; X3 = CC(C)=CC[C@]12C[C@@H](C(=O)[*:2])N([*:1])[C@H]1Nc1ccccc12

Worked cases, answers included:
compound	EC50
CC[C@H](C)[C@H](NC(=O)CN)C(=O)N[C@@H](Cc1ccccc1)C(=O)N1[C@H]2Nc3ccccc3[C@@]2(CC=C(C)C)C[C@H]1C(=O)N[C@@H](CCC(=O)O)C(=O)N[C@@H](CCC(N)=O)C(=O)O (H-GIF[X3]EQ-OH)	> 300 nM
CC(C)=CCC/C(C)=C/C[C@]12C[C@@H](C(N)=O)N(C(=O)c3ccccc3)[C@H]1Nc1ccccc12	> 300 nM
CC[C@H](C)[C@H](NC(=O)CN)C(=O)N[C@@H](Cc1ccccc1)C(=O)N1[C@H]2Nc3ccccc3[C@@]2(CCC(C)CCCC(C)C)C[C@H]1C(=O)N[C@@H](CCC(=O)O)C(=O)N[C@@H](CCC(N)=O)C(=O)O (mixture of isomers)	> 300 nM
CC[C@H](C)[C@H](N)C(=O)N1[C@H]2Nc3ccccc3[C@@]2(C/C=C(\C)CCC=C(C)C)C[C@H]1C(=O)N[C@@H](C)C(=O)O	> 300 nM
CC(C)=CCC/C(C)=C/C[C@]12C[C@H]3C(=O)N[C@@H](Cc4ccccc4)C(=O)N3[C@H]1Nc1ccccc12	> 300 nM

Ask: Can you share its EC50? I mean this compound: CC(C)=CCC/C(C)=C/C[C@]12C[C@@H](C(=O)N[C@@H](C)C(=O)O)N(C(=O)[C@@H]3CCCN3)[C@H]1Nc1ccccc12
Result: > 300 nM

Ask: Query CC(C)=CCC/C(C)=C/C[C@]12C[C@@H](C(=O)N[C@@H](CCC(=O)O)C(=O)O)N(C(=O)[C@H](C)N)[C@H]1Nc1ccccc12 next
Result: > 300 nM

Ask: What about this compound? CC(C)=CCC/C(C)=C/C[C@]12C[C@@H](C(=O)N[C@@H](CCC(=O)O)C(=O)O)N(C(=O)C(N)Cc3ccccc3)[C@H]1Nc1ccccc12 (single isomer, unassigned)
Result: 20 nM

Ask: Could you do the same for CC(C)=CCC/C(C)=C/C[C@]12C[C@@H](C(=O)N[C@@H](C)C(=O)O)N(C(=O)[C@@H](N)CC(N)=O)[C@H]1Nc1ccccc12 , please?
Result: > 300 nM

Ask: # repeat for CC(C)=CCC/C(C)=C/C[C@]12C[C@@H](C(=O)NCC(=O)O)N(C(=O)C(N)Cc3ccccc3)[C@H]1Nc1ccccc12 (single isomer, unassigned)
Result: > 300 nM

Ask: Another compound to check: CC[C@H](C)[C@H](NC(=O)CN)C(=O)N[C@@H](Cc1ccccc1)C(=O)N1[C@H]2Nc3ccccc3[C@@]2(C/C=C(\C)CCCC(C)C)C[C@H]1C(=O)N[C@@H](CCC(=O)O)C(=O)N[C@@H](CCC(N)=O)C(=O)O (H-GIF[X1]EQ-OH)
Result: 20 nM
